Test system: SF-268 CNS
experimentSummary: NCI-60 one-dose screen, 48 h (100 = growth as untreated, 0 = no growth, -100 = all killed)
conditionDetails: 10 µM unless noted
Protocol: Cells are grown in 96 well plates and exposed to the test compound for 48 hours. Compounds are tested at a single concentration, which is 10^-5 M for most compounds. The reported endpoint is percent growth (GI% or GIPRCNT), where numbers from 0 - 100% represent growth inhibition, and numbers from -100% - 0 represent cell death. For example, a value of 40 represents 60% growth inhibition. A value of 0 means no net growth occurred over the course of the experiment. […]
Compounds without any hit were thinned out: in the full panel of roughly 83,000, 20% have a hit.
So basically: is growth under 50%? Then met. Not under? Then not met.

Example entries and their recorded answers appear below.
compound | labelValue
Cn1c(I)c(C#CCO[Si](C)(C)C(C)(C)C)c(=O)[nH]c1=O | not met
CCSC(SCC)c1ccc(Cl)cc1 | not met
C=C(C)[C@@H]1CCC[C@]2(COS(=O)(=O)c3ccc(C)cc3)CC[C@]3(C)[C@@H](CC[C@@H]4[C@@]5(C)CCCNC(C)(C)[C@@H]5CC[C@]43C)[C@@H]12 | met
Cn1cc(-c2ccc3nc(-c4ccc(CC(=O)ONc5cc(C(C)(C)C)on5)cc4)cnc3c2)cn1 | met
Cn1cc(C(=O)c2nc(-c3c[nH]c4ccccc34)no2)c2cc(F)ccc21 | not met

# ---- query compound ----
Report whether reported growth is lower than 50% (strictly) for COc1cccc(CNc2ccc3ncnc(Nc4ccc(F)c(Cl)c4)c3c2)c1
not met

Source listed as PubChem BioAssay (NCI).
